Provenance of the data: patent US10953100B2

Target: Anti-alpha galactosyl IgG antibody
Assay summary: ELISA assay: streptavidin-captured biotin compound, binding of anti-alpha galactosyl IgG antibody
Condition description: geometric mean with standard error in brackets; streptavidin plate, anti-alpha galactosyl IgG 0.5 μg/mL; read-out: Concentration at half maximal binding
Procedure: Compounds containing F (representing a carbohydrate molecule capable of binding to a human anti-alpha-galactosyl antibody) and L (as biotin) were assayed for binding at both ends of the compound using an enzyme-linked immunosorbent assay (ELISA). Streptavidin-coated plates captured biotin to the surface of the plate and the binding of anti-alpha galactosyl antibodies to the alpha-galactosyl moiety was reported by a secondary antibody labelled with HRP (Horse Radish Peroxidase). […]
Exercise: for every item that follows, state its recorded pEC50.
Remember the convention: pEC50 equals -log10 of concentration in molar.

Lab note: need pEC50 with Anti-alpha galactosyl IgG antibody for entry CC(=O)NC1C(OCCCNC(=O)CCOCCOCCOCCOCCNC(=O)COc2cc(OCC(=O)NCCOCCOCCOCCOCCC(=O)NCCCOC3OC(CO)C(OC4OC(CO)C(O)C(OC5OC(CO)C(O)C(O)C5O)C4O)C(O)C3NC(C)=O)cc(-c3cc(OCC(=O)NCCOCCOCCOCCOCCC(=O)NCCCOC4OC(CO)C(OC5OC(CO)C(O)C(OC6OC(CO)C(O)C(O)C6O)C5O)C(O)C4NC(C)=O)cc(C(=O)NCCOCCOCCOCCOCCC(=O)NCCNC(=O)CCCCC4SCC5NC(=O)NC54)c3)c2)OC(CO)C(OC2OC(CO)C(O)C(OC3OC(CO)C(O)C(O)C3O)C2O)C1O (centres unmarked) [Example 58] , please look it up. 7.42

Tell me reported pEC50 for CC(=O)N[C@H]1[C@H](OCCCNC(=O)COc2cc(OCC(=O)NCCCO[C@@H]3O[C@H](CO)[C@@H](O[C@@H]4O[C@H](CO)[C@H](O)[C@H](O[C@H]5O[C@H](CO)[C@H](O)[C@H](O)[C@H]5O)[C@H]4O)[C@H](O)[C@H]3NC(C)=O)cc(-c3cccc(-c4cccc(C(=O)NCCNC(=O)CCCC[C@@H]5SC[C@@H]6NC(=O)N[C@@H]65)c4)c3)c2)O[C@H](CO)[C@@H](O[C@@H]2O[C@H](CO)[C@H](O)[C@H](O[C@H]3O[C@H](CO)[C@H](O)[C@H](O)[C@H]3O)[C@H]2O)[C@@H]1O [Example 61] , tested with Anti-alpha galactosyl IgG antibody. 7.52

----------
Target: Anti-alpha galactosyl IgG antibody
Assay summary: ELISA assay: streptavidin-captured biotin compound, binding of anti-alpha galactosyl IgG antibody
Condition description: geometric mean with standard error in brackets; streptavidin plate, anti-alpha galactosyl IgG 0.5 μg/mL; read-out: Concentration at half maximal binding
Lab note - cut at 10 nM for EC50: Met if strictly below, Not met if not.

Hello, is EC50 of the following compound strictly smaller than 10 nM? CC(=O)NC1C(OCCCNC(=O)CCOCCOCCOCCOCCNC(=O)COc2ccc(-c3cc(OCC(=O)NCCOCCOCCOCCOCCC(=O)NCCCOC4OC(CO)C(OC5OC(CO)C(O)C(OC6OC(CO)C(O)C(O)C6O)C5O)C(O)C4NC(C)=O)cc(C(=O)NCCNC(=O)CCOCCOCCOCCOCCOCCOCCOCCOCCOCCOCCOCCOCCNC(=O)CCCCC4SCC5NC(=O)NC54)c3)cc2)OC(CO)C(OC2OC(CO)C(O)C(OC3OC(CO)C(O)C(O)C3O)C2O)C1O (stereo not drawn) Not met

Field: below-cutoff. Rule: recorded EC50 strictly less than 10 nM. Subject: CC(=O)NC1C(OCCCNC(=O)CCOCCOCCOCCOCCOCCOCCOCCOCCOCCOCCOCCOCCNC(=O)COc2ccc(-c3cc(OCC(=O)NCCOCCOCCOCCOCCOCCOCCOCCOCCOCCOCCOCCOCCC(=O)NCCCOC4OC(CO)C(OC5OC(CO)C(O)C(OC6OC(CO)C(O)C(O)C6O)C5O)C(O)C4NC(C)=O)cc(C(=O)NCCNC(=O)CCCCC4SCC5NC(=O)NC54)c3)cc2)OC(CO)C(OC2OC(CO)C(O)C(OC3OC(CO)C(O)C(O)C3O)C2O)C1O (stereo not drawn) Not met

Given the entry CC(=O)N[C@H]1[C@H](OCCCNC(=O)CCOCCOCCOCCOCCNC(=O)COc2ccc(-c3cccc(C(=O)NCCNC(=O)CCOCCOCCOCCOCCOCCOCCOCCOCCOCCOCCOCCOCCNC(=O)CCCC[C@@H]4SC[C@@H]5NC(=O)N[C@@H]54)c3)cc2)O[C@H](CO)[C@@H](O[C@@H]2O[C@H](CO)[C@H](O)[C@H](O[C@H]3O[C@H](CO)[C@H](O)[C@H](O)[C@H]3O)[C@H]2O)[C@@H]1O , would its reported EC50 be below 10 nM? Not met

Could you please tell me whether EC50 recorded for CC(=O)NC1C(OCCCNC(=O)CCOCCOCCOCCOCCNC(=O)COc2cc(OCC(=O)NCCOCCOCCOCCOCCC(=O)NCCCOC3OC(CO)C(OC4OC(CO)C(O)C(OC5OC(CO)C(O)C(O)C5O)C4O)C(O)C3NC(C)=O)cc(C(=O)NCCNC(=O)CCOCCOCCOCCOCCOCCOCCOCCOCCOCCOCCOCCOCCNC(=O)CCCCC3SCC4NC(=O)NC43)c2)OC(CO)C(OC2OC(CO)C(O)C(OC3OC(CO)C(O)C(O)C3O)C2O)C1O (stereo not drawn) is less than 10 nM? Not met

Quick check: does CC(=O)N[C@H]1[C@H](OCCCNC(=O)COc2cccc(-c3cc(OCC(=O)NCCCO[C@@H]4O[C@H](CO)[C@@H](O[C@@H]5O[C@H](CO)[C@H](O)[C@H](O[C@H]6O[C@H](CO)[C@H](O)[C@H](O)[C@H]6O)[C@H]5O)[C@H](O)[C@H]4NC(C)=O)cc(C(=O)NCCNC(=O)CCCC[C@@H]4SC[C@@H]5NC(=O)N[C@@H]54)c3)c2)O[C@H](CO)[C@@H](O[C@@H]2O[C@H](CO)[C@H](O)[C@H](O[C@H]3O[C@H](CO)[C@H](O)[C@H](O)[C@H]3O)[C@H]2O)[C@@H]1O have EC50 under 10 nM? Not met

Given the entry CC(=O)NC1C(OCCCNC(=O)CCOCCOCCOCCOCCNC(=O)COc2cc(OCC(=O)NCCOCCOCCOCCOCCC(=O)NCCCOC3OC(CO)C(OC4OC(CO)C(O)C(OC5OC(CO)C(O)C(O)C5O)C4O)C(O)C3NC(C)=O)cc(-c3cc(OCC(=O)NCCOCCOCCOCCOCCC(=O)NCCCOC4OC(CO)C(OC5OC(CO)C(O)C(OC6OC(CO)C(O)C(O)C6O)C5O)C(O)C4NC(C)=O)cc(C(=O)NCCNC(=O)CCCCC4SCC5NC(=O)NC54)c3)c2)OC(CO)C(OC2OC(CO)C(O)C(OC3OC(CO)C(O)C(O)C3O)C2O)C1O (stereo not drawn) , would its reported EC50 be below 10 nM? Met

Below 10 nM on EC50? Entry CC(=O)NC1C(OCCCNC(=O)COc2cc(OCC(=O)NCCCOC3OC(CO)C(OC4OC(CO)C(O)C(OC5OC(CO)C(O)C(O)C5O)C4O)C(O)C3NC(C)=O)cc(C(=O)NCCNC(=O)CCOCCOCCOCCOCCOCCOCCOCCOCCOCCOCCOCCOCCNC(=O)CCCCC3SCC4NC(=O)NC43)c2)OC(CO)C(OC2OC(CO)C(O)C(OC3OC(CO)C(O)C(O)C3O)C2O)C1O (stereo not drawn) Met

Dear colleague, could you confirm whether EC50 of CC(=O)NC1C(OCCCNC(=O)COc2ccc(-c3cc(OCC(=O)NCCCOC4OC(CO)C(OC5OC(CO)C(O)C(OC6OC(CO)C(O)C(O)C6O)C5O)C(O)C4NC(C)=O)cc(C(=O)NCCNC(=O)CCOCCOCCOCCOCCOCCOCCOCCOCCOCCOCCOCCOCCNC(=O)CCCCC4SCC5NC(=O)NC54)c3)cc2)OC(CO)C(OC2OC(CO)C(O)C(OC3OC(CO)C(O)C(O)C3O)C2O)C1O (stereo not drawn) falls below 10 nM? Thanks. Not met

Record CC(=O)N[C@H]1[C@H](OCCCNC(=O)CCOCCOCCOCCOCCOCCOCCOCCOCCOCCOCCOCCOCCNC(=O)COc2cccc(C(=O)NCCNC(=O)CCOCCOCCOCCOCCOCCOCCOCCOCCOCCOCCOCCOCCNC(=O)CCCC[C@@H]3SC[C@@H]4NC(=O)N[C@@H]43)c2)O[C@H](CO)[C@@H](O[C@@H]2O[C@H](CO)[C@H](O)[C@H](O[C@H]3O[C@H](CO)[C@H](O)[C@H](O)[C@H]3O)[C@H]2O)[C@@H]1O : is its EC50 strictly below 10 nM? Not met
